Just for reference, ChEMBL document CHEMBL3232933 is where these values come from.

Item-by-item account of inhibition
tgt: Advanced glycosylation end product-specific receptor (Homo sapiens, UniProt Q15109)
Sequence (Q15109 whole entry): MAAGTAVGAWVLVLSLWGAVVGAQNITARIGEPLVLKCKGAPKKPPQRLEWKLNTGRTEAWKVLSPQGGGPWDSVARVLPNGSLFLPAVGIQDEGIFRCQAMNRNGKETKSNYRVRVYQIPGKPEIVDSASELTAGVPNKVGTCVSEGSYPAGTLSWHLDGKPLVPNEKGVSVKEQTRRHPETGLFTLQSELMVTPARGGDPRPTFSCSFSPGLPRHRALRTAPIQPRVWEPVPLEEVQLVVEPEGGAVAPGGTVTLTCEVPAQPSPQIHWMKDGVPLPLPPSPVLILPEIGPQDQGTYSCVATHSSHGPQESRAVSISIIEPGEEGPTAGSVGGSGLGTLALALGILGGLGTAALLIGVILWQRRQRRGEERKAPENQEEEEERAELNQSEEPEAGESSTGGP
assay.notes: Inhibition of biotinylated human RAGE assessed as bound amyloid beta level at 20 uM after 60 mins by ELISA relative to control

| cpd.smiles | assay.endpoint | value |
| --- | --- | --- |
| CCN(CC)CCCOc1ccc(NC(=O)c2cc(-c3ccc(Oc4ccc(Cl)cc4)cc3)nn2C)cc1 | inhibition | 33.8% |
| CCCCOc1cc(OCCCN(CC)CC)ccc1NC(=O)c1cc(-c2ccc(Oc3cccc(F)c3)cc2)nn1C | inhibition | 37% |
| CCCCOc1cc(OCCCN(CC)CC)ccc1NC(=O)c1cc(-c2ccc(Oc3ccc(OC)c(Cl)c3)cc2)nn1C | inhibition | 36.5% |
| CCCCOc1cc(OCCCN(CC)CC)ccc1NC(=O)c1cc(-c2ccc(Oc3ccc(F)c(F)c3)cc2)nn1C | inhibition | 19.9% |
| CCCCOc1cc(OCCCN(CC)CC)ccc1NC(=O)c1cc(-c2ccc(OC3CCCCC3)cc2)nn1C | inhibition | 76% |
| CCCCOc1cc(OCCCN(CC)CC)ccc1NC(=O)c1cc(-c2ccc(Oc3ccccc3F)cc2)nn1C | inhibition | 29.5% |

Q: # lookup: inhibition of "CCCCOc1cc(OCCCN(CC)CC)ccc1NC(=O)c1cc(-c2ccc(OC)cc2)nn1C"
A: 32.4%

* * *

This section presents molecules with their documented AUC values.
assay.notes: AUC in Sprague-Dawley rat at 2 mg/kg, iv
Format: ADME, organism-based
Parameters: dose 2 mg/kg, route intravenous
condition.summary: plasma
Report as a plain number; the unit ng·h/mL is understood.

| cpd.smiles | output.unit | value |
| --- | --- | --- |
| CCN(CC)CCOc1cccc(Nc2nc(-c3ccc(Cl)cc3)cc(-c3ccc(Cl)cc3)n2)c1 | ng·h/mL | 10600 |

Below: the item to evaluate.
Q: Which measured AUC value corresponds to "CCCCOc1cc(OCCCN(CC)CC)ccc1NC(=O)c1cc(-c2ccc(Oc3ccc(F)cc3)cc2)nn1C" ?
A: 8560

* * *

assay.notes: Kinetic solubility of the compound in PBS at pH 7.4 by nephelometric analysis
Type: physicochemical
condition.summary: read-out: Kinetic_solubility
Known solubility kinetic of a selection of molecules
Write the number in µM without appending the unit.

| cpd.smiles | output.unit | solubility kinetic |
| --- | --- | --- |
| CCCCOc1cc(OCCCN(CC)CC)ccc1NC(=O)c1cc(-c2ccc(Oc3ccc(F)cc3)cc2)nn1C.Cl | µM | 80.3 |

Now turn to the next molecule.
Q: Could you tell me which solubility kinetic is on file for "CCN(CC)CCOc1cccc(Nc2nc(-c3ccc(Cl)cc3)cc(-c3ccc(Cl)cc3)n2)c1.Cl" ?
A: 16.5
